# test_protocol: in vivo
# assay_setup: male, Polish Landrace x Pietrain, pig, po, 15 ug/kg BW, obestatin concentration in the blood plasma
Where no end group is shown, it is not given here.
quantity_kind: level at 0.5 h (ng/mL)

- FNAPFDVGIKLSGAQYQQHGRAL-NH2 [obestatin]: 0.405
